# test: in vitro
# condition-description: human, hela cells, % viability
assay-readout: viability at 28.5 h, 10 µM (%)
Give a bare numeral; the unit % is implied.

INSERT INTO results (compound, observed_value) VALUES
  ('COCCNc1nc(-c2cccc3cccnc23)cn2ccnc12', 95.3),
  ('CC(C)(CN1CCOCC1)NC(=O)c1cnc2cc(C(F)(F)F)ccc2c1O', 102),
  ('O=C(CSCCOc1ccc(Br)cc1)Nc1ccc2c(c1)OCCO2', 108),
  ('COc1ccc(N2CCN(c3cc(-c4ccc(OC(F)(F)F)cc4)ncn3)CC2)cc1OC', 94.1),
  ('O=C(Nc1ncnc2c1ccn2C1CC(O)C(CO)O1)c1ccccc1 (stereo not drawn)', 96.3),
  ('Cn1cc(-c2ncc(OCCc3cccs3)nc2N)cn1', 87.8),
  ('CCCCNC(=O)c1ccc2nc(C)c(N(C)CC3CCCCC3)n2c1', 99.6),
  ('CSc1ccc([C@H]2[C@H](C(=O)O)CC(=O)N2Cc2ccccc2)cc1', 91.7);

The record that follows has no viability at 28.5 h, 10 µM shown yet.
Req: // fetch viability at 28.5 h, 10 µM given entry CC(=O)N1CCC(C(=O)NC(=O)NC2CCCCC2)CC1
Resp: 99.4
